Origin of measurements: patent US20250340574A1

Tgt: CFTR (F508del/MF-HBE cells) (Homo sapiens, UniProt P13569, DEL508-508)
Construct: human bronchial epithelial (HBE) cells derived from CF subjects heterozygous for F508del and a minimal function CFTR mutation (F508del/MF-HBE); endogenous in cells; host or cells: Primary human bronchial epithelial cells from CF subjects (F508del/MF genotype), differentiated at an air-liquid interface
Sequence (P13569 with tags, fused parts or gaps DEL508-508): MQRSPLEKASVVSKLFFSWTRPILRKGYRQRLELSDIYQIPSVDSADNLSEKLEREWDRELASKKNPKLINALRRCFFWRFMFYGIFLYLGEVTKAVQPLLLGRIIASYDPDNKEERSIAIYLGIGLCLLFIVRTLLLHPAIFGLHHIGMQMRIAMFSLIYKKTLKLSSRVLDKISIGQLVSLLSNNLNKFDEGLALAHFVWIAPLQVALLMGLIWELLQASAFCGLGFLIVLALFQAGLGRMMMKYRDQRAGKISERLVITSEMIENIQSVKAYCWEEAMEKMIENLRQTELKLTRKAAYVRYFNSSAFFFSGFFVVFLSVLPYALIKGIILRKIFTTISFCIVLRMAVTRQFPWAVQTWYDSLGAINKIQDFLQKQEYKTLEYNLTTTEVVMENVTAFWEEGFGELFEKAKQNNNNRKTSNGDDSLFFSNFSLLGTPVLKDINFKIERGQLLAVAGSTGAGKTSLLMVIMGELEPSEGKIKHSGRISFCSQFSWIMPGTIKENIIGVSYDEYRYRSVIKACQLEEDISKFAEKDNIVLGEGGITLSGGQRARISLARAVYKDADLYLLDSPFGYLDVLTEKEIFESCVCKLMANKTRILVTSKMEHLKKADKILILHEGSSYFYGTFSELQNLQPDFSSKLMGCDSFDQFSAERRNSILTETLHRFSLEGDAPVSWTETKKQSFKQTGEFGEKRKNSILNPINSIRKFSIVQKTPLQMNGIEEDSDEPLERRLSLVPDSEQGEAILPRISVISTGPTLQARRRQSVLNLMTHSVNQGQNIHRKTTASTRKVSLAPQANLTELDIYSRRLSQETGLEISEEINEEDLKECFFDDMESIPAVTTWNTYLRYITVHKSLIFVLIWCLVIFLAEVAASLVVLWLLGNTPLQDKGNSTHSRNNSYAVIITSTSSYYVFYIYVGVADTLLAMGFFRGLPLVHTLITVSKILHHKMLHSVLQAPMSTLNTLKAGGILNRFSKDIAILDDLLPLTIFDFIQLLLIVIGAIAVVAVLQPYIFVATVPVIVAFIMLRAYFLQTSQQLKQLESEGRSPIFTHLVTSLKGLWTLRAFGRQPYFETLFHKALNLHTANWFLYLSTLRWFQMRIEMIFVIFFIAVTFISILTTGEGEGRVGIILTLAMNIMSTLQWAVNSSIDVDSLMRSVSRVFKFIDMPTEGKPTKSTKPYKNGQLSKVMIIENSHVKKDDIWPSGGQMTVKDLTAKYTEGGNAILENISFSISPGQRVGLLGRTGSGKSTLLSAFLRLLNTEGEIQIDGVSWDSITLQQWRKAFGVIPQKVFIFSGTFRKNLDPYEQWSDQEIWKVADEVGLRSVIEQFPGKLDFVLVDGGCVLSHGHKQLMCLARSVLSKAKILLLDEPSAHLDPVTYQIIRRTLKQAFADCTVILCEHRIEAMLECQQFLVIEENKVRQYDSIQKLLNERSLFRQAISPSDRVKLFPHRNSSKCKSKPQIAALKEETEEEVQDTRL
Protocol text: Ussing chamber assay of CFTR-mediated short-circuit currents, Assay B (0.00001 μM to 25 μM, 12 concentrations)
Format: cell-based
Study conditions: with 33 nM potentiator and 18 μM Tezacaftor, 18-24 hours, 20% human serum, read-out: B Max activity (%)
Below, each entry is listed alongside its reported Emax.

Cc1cccc(C)c1-c1cc2nc(n1)NS(=O)(=O)c1cccc(c1)C(=O)N(Cc1cnc3oc(C(C)(C)C)cc3n1)[C@H](CC1(C)CC1)CO2 [Compound I-98]    > 60%

Exam item: Can you share its Emax? I mean this compound: Cc1cccc(C)c1-c1cc2nc(n1)NS(=O)(=O)c1cccc(c1)C(=O)N(Cc1cnc3oc(C4CC4)cc3n1)[C@H](COC1CCCC1)CO2 [Compound I-118]
Marked response: > 60%

Exam item: Bench note: what Emax did Cc1cccc(CC(C)C)c1-c1nc2nc(c1C)OC[C@@H](CC(C)(C)C)N(Cc1cnc3oc(C(C)C)cc3n1)C(=O)c1cccc(c1)S(=O)(=O)N2 (atropisomer, axis not shown) [Compound I-65] show?
Marked response: > 60%

Exam item: Would you mind telling me what Emax value was observed for Cc1cccc(C)c1-c1cc2nc(n1)NS(=O)(=O)c1cccc(c1)C(=O)N(Cc1cnc3oc(C4CC4)cc3n1)[C@H](CCC(C)C)CO2 [Compound I-130] ?
Marked response: > 60%

Exam item: Entry Cc1cccc(C)c1-c1cc2nc(n1)NS(=O)(=O)c1cccc(c1)C(=O)N(Cc1cnc3oc(C4CC4)cc3n1)[C@H](CC1CCCC1)CO2 [Compound I-61] has what Emax?
Marked response: > 60%

----------
Tgt: CFTR (F508del/MF-HBE cells) (Homo sapiens, UniProt P13569, DEL508-508)
Construct: human bronchial epithelial (HBE) cells derived from CF subjects heterozygous for F508del and a minimal function CFTR mutation (F508del/MF-HBE); endogenous in cells; host or cells: Primary human bronchial epithelial cells from CF subjects (F508del/MF genotype), differentiated at an air-liquid interface
Protocol text: Ussing chamber assay of CFTR-mediated short-circuit currents, Assay C (0.026 μM to 25 μM, 6 concentrations)
Type: cell-based
Study conditions: with 33 nM potentiator and 18 μM Tezacaftor, 20% human serum
Measurement name: EC50

Known EC50 results, listed for orientation:
Cc1cccc(CC(C)C)c1-c1nc2nc(c1C)OC[C@@H](CC13CC(C1)C3)N(Cc1cnc3oc(C(C)(C)C)cc3n1)C(=O)c1cccc(c1)S(=O)(=O)N2    < 1 µM
Cc1cccc(C)c1-c1cc2nc(n1)NS(=O)(=O)c1cccc(c1)C(=O)N(Cc1cnc3oc(C4(C)CC4)cc3n1)[C@H](C[C@H]1CCCCO1)CO2    3 to 30 µM

Exam item: Sample Cc1cccc(C)c1-c1cc2nc(n1)NS(=O)(=O)c1cccc(c1)C(=O)N(Cc1cnc3cc(C(C)(C)C)n(C)c3n1)[C@@H](C(C(C)C)C(C)C)CO2 — what was its EC50?
Marked response: < 1 µM

Exam item: Report EC50 for Cc1cccc(C)c1-c1cc2nc(n1)NS(=O)(=O)c1cccc(c1)C(=O)N(Cc1ncc3oc(C4CC4)cc3n1)[C@H](CC1(C)CC1)CO2 please.
Marked response: 3 to 30 µM

Exam item: Please look up its EC50: Cc1cccc(C)c1-c1cc2nc(n1)NS(=O)(=O)c1cccc(c1)C(=O)N(Cc1cnc3oc(C4(C)CC4)cc3n1)[C@H](C[C@@H]1CCCO1)CO2
Marked response: 1 to 3 µM

Exam item: Report EC50 for Cc1cccc(C)c1-c1cc2nc(n1)NS(=O)(=O)c1cccc(c1)C(=O)N(Cc1cnc3oc(C4(C)CC4)cc3n1)[C@@H](C(C(C)C)C(C)C)CO2 (stereo in doubt) please.
Marked response: < 1 µM

----------
Each entry below carries its reported pEC50.
Tgt: CFTR (F508del/MF-HBE cells) (Homo sapiens, UniProt P13569, DEL508-508)
Construct: human bronchial epithelial (HBE) cells derived from CF subjects heterozygous for F508del and a minimal function CFTR mutation (F508del/MF-HBE); endogenous in cells; host or cells: Primary human bronchial epithelial cells from CF subjects (F508del/MF genotype), differentiated at an air-liquid interface
Protocol text: Ussing chamber assay of CFTR-mediated short-circuit currents, Assay C (0.026 μM to 25 μM, 6 concentrations)
Format: cell-based
Study conditions: with 33 nM potentiator and 18 μM Tezacaftor, 20% human serum
Experimental: Ussing chamber experiments were performed using human bronchial epithelial (HBE) cells derived from CF subjects heterozygous for F508del and a minimal function CFTR mutation (F508del/MF-HBE) and cultured as previously described (Neuberger T, Burton B, Clark H, Van Goor F Methods Mol Biol 2011:741:39-54). […] The activity of the CFTR corrector compounds on the CFTR-mediated ISC was determined in Ussing chamber studies as described above. […]
pEC50: −log10 of the molar value.

Cc1cccc(CC(C)C)c1-c1nc2nc(c1C)OC[C@@H](CC1(C)CC1)N(Cc1cnc3cc(C(C)(C)C)n(C)c3n1)C(=O)c1cccc(n1)S(=O)(=O)N2 [IV-72]    5.52 to 6.00

Exam item: Using the record for Cc1cccc(C)c1-c1cc2nc(n1)NS(=O)(=O)c1cccc(c1)C(=O)N(Cc1ncc3cc(C4CC4)n(C)c3n1)[C@H](CC13CC(C1)C3)CO2 [Compound I-264] , report its pEC50.
Marked response: 5.52 to 6.00

Exam item: I am curious: what pEC50 value has been reported for Cc1cccc(CC(C)C)c1-c1nc2nc(c1C)OC[C@@H](CC(C)(C)C)N(Cc1cnc3nc(C(C)C)n(C)c3n1)C(=O)c1cccc(c1)S(=O)(=O)N2 (atropisomer, axis not shown) [Compound I-171] ?
Marked response: > 6.00

Exam item: Would you kindly share the measured pEC50 for COc1c2nc(nc1-c1c(C)cccc1C)NS(=O)(=O)c1cccc(c1)C(=O)N(Cc1cnc3oc(C(C)(C)C)cc3n1)[C@H](CC1(C)CC1)CO2 [IV-12] ?
Marked response: 5.52 to 6.00

Exam item: Quick check: pEC50 of Cc1cccc(OC(C)C)c1-c1nc2nc(c1C)OC[C@@H](CC(C)(C)C)N(Cc1cnc3oc(C(C)(C)C)cc3n1)C(=O)c1cccc(c1)S(=O)(=O)N2 (atropisomer, axis not shown) [Compound I-249] ?
Marked response: 5.52 to 6.00

Exam item: Reported pEC50 for Cc1cccc(C)c1-c1cc2nc(n1)NS(=O)(=O)c1cccc(c1)C(=O)N(Cc1cnc3cc(C4(C)CC4)n(C)c3n1)[C@H](COC(C)C)CO2 [Compound I-240] : what is it?
Marked response: > 6.00

Exam item: Value lookup for pEC50; key = Cc1cccc(CC(C)C)c1-c1nc2nc(c1C)OC[C@@H](CC(C)(C)C)N(Cc1cnc3cc(C4(C)CC4)n(C)c3n1)C(=O)c1cccc(c1)S(=O)(=O)N2 (atropisomer, axis not shown) [IV-19]
Marked response: > 6.00

----------
Measured pEC50, listed per entry for reference.
Tgt: CFTR (F508del/MF-HBE cells) (Homo sapiens, UniProt P13569, DEL508-508)
Construct: human bronchial epithelial (HBE) cells derived from CF subjects heterozygous for F508del and a minimal function CFTR mutation (F508del/MF-HBE); endogenous in cells; host or cells: Primary human bronchial epithelial cells from CF subjects (F508del/MF genotype), differentiated at an air-liquid interface
Protocol text: Ussing chamber assay of CFTR-mediated short-circuit currents, Assay A (0.1 μM to 25 μM, 6 concentrations)
Format: cell-based
Study conditions: with 33 nM potentiator and 18 μM Tezacaftor, 20% human serum
Procedure: Ussing chamber experiments were performed using human bronchial epithelial (HBE) cells derived from CF subjects heterozygous for F508del and a minimal function CFTR mutation (F508del/MF-HBE) and cultured as previously described (Neuberger T, Burton B, Clark H, Van Goor F Methods Mol Biol 2011:741:39-54). […] The activity of the CFTR corrector compounds on the CFTR-mediated ISC was determined in Ussing chamber studies as described above. […]
pEC50: −log10 of the molar value.

Exam item: Form field: pEC50 recorded for Cc1cccc(C)c1-c1cc2nc(n1)NS(=O)(=O)c1cccc(c1)C(=O)N(Cc1cnc3oc(C(C)C)c(C#N)c3n1)[C@H](COC(C)C)CO2 with CFTR (F508del/MF-HBE cells) (Homo sapiens, UniProt P13569, DEL508-508) (enter value)
Marked response: > 6.00

Exam item: # value lookup — system CFTR (F508del/MF-HBE cells) (Homo sapiens, UniProt P13569, DEL508-508), readout pEC50, item Cc1cccc(C)c1-c1cc2nc(n1)NS(=O)(=O)c1cccc(c1)C(=O)N(Cc1nc3c(cc1F)cc(C(C)C)n3C)[C@H](CC1(C)CC1)CO2
Marked response: > 6.00

Exam item: Hi! What's the reported pEC50 for Cc1cccc(C)c1-c1cc2nc(n1)NS(=O)(=O)c1cccc(c1)C(=O)N(Cc1nc3c(C(C)C)cccc3o1)[C@H](CC(C)(C)C)CO2 on CFTR (F508del/MF-HBE cells) (Homo sapiens, UniProt P13569, DEL508-508)?
Marked response: > 6.00

Exam item: Any idea what pEC50 came out for Cc1cccc(C)c1-c1cc2nc(n1)NS(=O)(=O)c1cccc(c1)C(=O)N(Cc1cnc3oc(C(C)C)c(C#N)c3n1)[C@H](CC1(C)CC1)CO2 on CFTR (F508del/MF-HBE cells) (Homo sapiens, UniProt P13569, DEL508-508)?
Marked response: > 6.00

Exam item: Entry Cc1cccc(C)c1-c1cc2nc(n1)NS(=O)(=O)c1cccc(c1)C(=O)N(Cc1nc3cc(C(C)C)oc3cc1F)[C@H](CC1(C)CC1)CO2 , system CFTR (F508del/MF-HBE cells) (Homo sapiens, UniProt P13569, DEL508-508): what pEC50 was measured?
Marked response: > 6.00

Exam item: What value of pEC50 on CFTR (F508del/MF-HBE cells) (Homo sapiens, UniProt P13569, DEL508-508) does Cc1cccc(C)c1-c1cc2nc(n1)NS(=O)(=O)c1cccc(c1)C(=O)N(Cc1cnc3oc(C(C)C)cc3n1)[C@H](CC1CCOCC1)CO2 have?
Marked response: > 6.00

Exam item: What pEC50 appears in the records for this molecule with CFTR (F508del/MF-HBE cells) (Homo sapiens, UniProt P13569, DEL508-508)? Cc1cccc(C)c1-c1cc2nc(n1)NS(=O)(=O)c1cccc(c1)C(=O)N(Cc1cnc3cc(C(C)C)n(C)c3n1)[C@H](CC1C3(CC3)C13CC3)CO2
Marked response: > 6.00

Exam item: Enter reported pEC50 observed with CFTR (F508del/MF-HBE cells) (Homo sapiens, UniProt P13569, DEL508-508) for Cc1cccc(C)c1-c1cc2nc(n1)NS(=O)(=O)c1cccc(c1)C(=O)N(Cc1cnc3oc(C(C)C)cc3n1)[C@H](CC(C)(C)F)CO2
Marked response: > 6.00

Exam item: I'm curious: which pEC50 was measured for Cc1cccc(C)c1-c1cc2nc(n1)NS(=O)(=O)c1cccc(c1)C(=O)N(Cc1cn3cccc(N)c3n1)[C@H](CC(C)(C)C)CO2 tested on CFTR (F508del/MF-HBE cells) (Homo sapiens, UniProt P13569, DEL508-508)?
Marked response: > 6.00

Exam item: Return pEC50 measured with CFTR (F508del/MF-HBE cells) (Homo sapiens, UniProt P13569, DEL508-508) given this molecule: Cc1cccc(C)c1-c1cc2nc(n1)NS(=O)(=O)c1cccc(c1)C(=O)N(Cc1cnc3oc(C4CC4)cc3n1)[C@@H](COC1CCC1)CO2 (stereo in doubt)
Marked response: > 6.00

Exam item: CFTR (F508del/MF-HBE cells) (Homo sapiens, UniProt P13569, DEL508-508) / pEC50 / Cc1cccc(C)c1-c1cc2nc(n1)NS(=O)(=O)c1cccc(c1)C(=O)N(Cc1cnc3oc(C(C)C)c(C)c3n1)[C@H](CCC(C)C)CO2 : value?
Marked response: > 6.00

Exam item: GET /values?readout=pEC50&system=CFTR (F508del/MF-HBE cells) (Homo sapiens, UniProt P13569, DEL508-508)&item= Cc1cccc(C)c1-c1cc2nc(n1)NS(=O)(=O)c1cccc(c1)C(=O)N(Cc1cnc3oc(C4CC4)cc3n1)[C@H](CC(C)(C)F)CO2
Marked response: > 6.00

Exam item: Hello, I am looking for reported pEC50 with CFTR (F508del/MF-HBE cells) (Homo sapiens, UniProt P13569, DEL508-508) for Cc1cccc(C)c1-c1cc2nc(n1)NS(=O)(=O)c1cccc(c1)C(=O)N(Cc1cnc3cc(C(C)C)n(C)c3n1)[C@H](CCC1(C)CCC1)CO2 . Could you help?
Marked response: > 6.00
